Test system: K562
Assay Protocol: NCI tumour cell line growth inhibition, 48 h
Structures can show the parent of a compound that is named as a salt. The source made the active and inactive calls. No stated cut-off is given here; in the data, active = GI50 up to about 1.1 µM and inactive = higher.
Select the matching outcome among 1 = active, 0 = inactive

Solved entries (count: 5):
Molecule	Class Name
CNC(=O)c1nc[nH]c1/N=N/N(C)N	0
CC(C)(C)[Si](C)(C)O/N=C\c1cccc(O[Si](C)(C)C(C)(C)C)c1	0
CCOC(=O)c1c(SC(=O)c2ccc(C(C)(C)C)cc2)n(-c2ccccc2)c(=S)n(-c2ccccc2)c1=O	0
COC1CC(O)C(OC(=O)c2ccccc2)C(C)O1 (stereo not drawn)	0
COc1ccc(OC)c2cc(C3(C)SCCCS3)ccc12	0

[ask] For COc1cc(C(CN)N(C)C)cc(OC)c1OC (stereo not drawn) , which call appears in the assay record?
[reply] 0

[ask] For `CC(C)(C)C1=Nc2c(Br)cc(C(C)(C)C)cc2C(C(F)(F)F)(C(F)(F)F)O1` , which call appears in the assay record?
[reply] 0

[ask] For COc1cc(O)c2c(c1)OCC1(Cc3cc(OC)c(OC)cc31)C2=O (stereo not drawn) , which call appears in the assay record?
[reply] 0

[ask] For Nc1ccc([As](=O)(O)O)cc1 [ARSANILIC ACID] , which call appears in the assay record?
[reply] 0

[ask] For CN1C[C@H](C(=O)N[C@]2(C)O[C@@]3(O)[C@@H]4CCCN4C(=O)[C@H](Cc4ccccc4)N3C2=O)C=C2c3cccc4[nH]cc(c34)C[C@H]21 [ERGOTAMINE TARTRATE] , which call appears in the assay record?
[reply] 0

###

System: SK-MEL-28
Assay Protocol: NCI tumour cell line growth inhibition, 48 h
Activity calls are given as the source filed them. Rule as the data show it: active = GI50 up to about 1.1 µM and inactive = higher.
Task for the reader: assign each of the following molecules its reported GI50.

# example entries with known answers
                                   molecule  quantity_measured               result
0  O=C(c1ccccc1)N1C(=O)N(c2ccccc2)C(=N/c2ccccc2)/C1=N\c1ccccc1               GI50  > 100 µM (inactive)
1  C[n+]1c2ccccc2c(CNC(CCC(N)=O)C(=O)O)c2ccccc21 (stereo unspecified)               GI50   5.96 µM (inactive)
2                              NNc1ccccc1Cl               GI50  > 100 µM (inactive)

I need GI50 for every entry listed below, if you could help.
1. N=C(N)C(/N=N\c1ccccc1)C(N)=O (stereo unspecified)
2. CCOP(=O)(OCC)/C(=C/c1cccs1)CC(C)=O
3. COC(=O)C(Cc1nc2ccc(Cl)cc2nc1O)C(=O)C(=O)Nc1ccccc1[N+](=O)[O-] (stereo unspecified)

[reply]
> 100 µM (inactive)
> 100 µM (inactive)
> 100 µM (inactive)

I need GI50 for every entry listed below, if you could help.
1. COC1[C@@H](OC(C)=O)[C@@H](NC(=O)C(Cl)(Cl)Cl)C(I)[C@@H](N2C(=O)c3ccccc3C2=O)[C@H]1OC (stereo partly specified)
2. CC(=O)C1=CC=C/C1=N\Nc1ccccc1

[reply]
1: > 100 µM (inactive); 2: 14 µM (inactive)

I need GI50 for every entry listed below, if you could help.
1. CC(C)(C)/C(O)=C\c1nc2ccc(C(F)(F)F)cc2[nH]c1=O
2. NCCCNOCCCN
3. N#C/C(=C1\OC(=N)C(c2ccccc2)C1=O)c1ccccc1 (stereo unspecified)

[reply]
1: > 100 µM (inactive); 2: > 100 µM (inactive); 3: 13.3 µM (inactive)
